Molecular target: Nociceptin receptor (Homo sapiens)
Sequence (P41146 whole entry): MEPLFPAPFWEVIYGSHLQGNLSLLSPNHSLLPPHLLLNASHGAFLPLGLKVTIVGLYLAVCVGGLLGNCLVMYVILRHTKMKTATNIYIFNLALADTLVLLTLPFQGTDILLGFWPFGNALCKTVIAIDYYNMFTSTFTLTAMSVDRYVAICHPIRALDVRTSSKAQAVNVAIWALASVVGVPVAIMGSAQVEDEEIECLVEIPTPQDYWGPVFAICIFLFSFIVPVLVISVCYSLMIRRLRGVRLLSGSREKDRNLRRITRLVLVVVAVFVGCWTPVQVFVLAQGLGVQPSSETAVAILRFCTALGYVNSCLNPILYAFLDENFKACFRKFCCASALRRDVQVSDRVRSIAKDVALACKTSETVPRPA
Experiment: Cell-Based NOP Assay: Formula (I) compounds were tested for antagonism of the nociceptin receptor (NOP) in a cell-based cAMP assay, using the LANCE cAMP Detection Kit, Perkin Elmer (Waltham, Mass.). This assay (LANCE cAMP) is a homogeneous, time-resolved fluorescence resonance energy transfer (TR-FRET) immunoassay designed to measure cAMP produced upon modulation of adenylyl cyclase activity by G protein-coupled receptors (GPCRs).ProtocolCells expressing human opioid NOP (ValiScreen cell line, cat #ES-230-C Perkin Elmer (Waltham, Mass.) were dispensed in simulation buffer (5 mM Hepes, 0.1% BSA, 0.5 mM IBMX in Hanks Buffered Saline Solution) at 2.5 μL cells per well (400 cells/well) into a 1536 white TC-treated assay plate. Compound was then added and plates were incubated for 15 minutes at room temperature. To each well was added 2.5 μL of a solution containing forskolin (3 μM final) and nociceptin peptide (390 pM final) diluted in stimulation buffer, and the plates were incubated for 30 minutes at room temperature. To each well was dispensed 5 μL of LANCE Ultra detection (1:300 dilution of anti-cAMP ULight with a 1:100 dilution of Eu-cAMP tracer diluted in cAMP Detection Buffer) reagent, and the plates were incubated for 1 hr at room temperature. The plate was then read on the ViewLux microplate reader (Perkin Elmer, Waltham, Mass.) using the LANCE 1536 protocol with 60 second exposure times and 50 μs delay. This protocol has an excitation wavelength of 340 nm (DUG11 filter) and emission wavelengths of 615 nm (Eu-Donor) and 665 nm (Alexa 647 cAMP antibody acceptor).Data AnalysisData was analyzed, normalized, and visualized using ACAS (John McNeil & Co.). Efficacy was calculated using activity of the vehicle (DMSO) as 0% efficacy and the activity of the corresponding reference positive control (SCH 221510, Tocris Bioscience (Pittsburgh, Pa.), Catalog number 3240) as 100% efficacy. Activity was calculated as the ratio of donor and acceptor emissions. All curve fits and IC50 determinations were performed using a non-linear regression model. The IC50 value was measured as the concentration at which half-maximal response was calculated.
Recorded IC50, one value per entry.

These recorded examples may help you get a feel for the data.
{"compound": "CC1(NCCC2CCC(c3ncccc3Cl)CC2)CCCC1 (stereo not given)", "measured target": "Nociceptin receptor (Homo sapiens)", "IC50": "100 to 1000 nM"}
{"compound": "CNC(=O)C1(NCC[C@H]2CC[C@@H](c3ccc(F)cc3Cl)CC2)CCCC1", "measured target": "Nociceptin receptor (Homo sapiens)", "IC50": "1 to 10 nM"}
{"compound": "Cc1cccnc1C1CCC(CCNC2CCCC2)CC1 (stereo not given)", "measured target": "Nociceptin receptor (Homo sapiens)", "IC50": "100 to 1000 nM"}
{"compound": "Cc1cc(F)c(F)cc1[C@H]1CC[C@H](CCN[C@@H]2CCNC(=O)C2)CC1", "measured target": "Nociceptin receptor (Homo sapiens)", "IC50": "10 to 100 nM"}
{"compound": "COCC1(NCCC2CCC(c3c(F)cccc3Cl)CC2)CCOCC1 (stereo not given)", "measured target": "Nociceptin receptor (Homo sapiens)", "IC50": "10 to 100 nM"}

Form field: reported IC50 of COCC1(NCC[C@H]2CC[C@H](c3ncc(F)cc3Cl)CC2)CCOCC1 100 to 1000 nM

Form field: reported IC50 of NC(=O)C1(NCC[C@H]2CC[C@@H](c3ccc(F)cc3Cl)CC2)CCCC1 10 to 100 nM

Form field: reported IC50 of NC(=O)C1(NCC[C@H]2CC[C@@H](c3ccc(F)cc3Cl)CC2)CCCOC1 (stereo not given in full) 100 to 1000 nM
